- Test system: PC-3
- assay notes: Cytotoxicity against human PC3 cells
- Format: functional, cell-based
IC50 vs 200 µM: less than gives Met; not less than gives Not met.

Does this molecule meet the criterion IC50 < 200 µM? Clc1ccc(Cn2cc(-c3nsc(-c4cn(Cc5ccc(Cl)cc5)c5ccccc45)n3)c3ccccc32)cc1 Not met

Hello, I'm reviewing records and need to know if IC50 of COc1ccc2c(c1)c(-c1nsc(-c3cn(C)c4ccc(OC)cc34)n1)cn2C is below 200 µM. Could you check? Not met

Below 200 µM on IC50? Entry c1ccc2c(Cc3nsc(Cc4c[nH]c5ccccc45)n3)c[nH]c2c1 Met

Please state whether IC50 is below 200 µM for c1ccc2c(-c3nsc(-c4c[nH]c5ccccc45)n3)c[nH]c2c1 Not met

In plain terms, does COc1ccc2c(c1)c(-c1nsc(-c3cn(Cc4ccc(Cl)cc4)c4ccc(OC)cc34)n1)cn2Cc1ccc(Cl)cc1 come in under 200 µM for IC50? Met

Does this molecule meet the criterion IC50 < 200 µM? c1ccc2[nH]c(-c3nsc(-c4cc5ccccc5[nH]4)n3)cc2c1 Not met

API: query returns whether the molecule falls strictly under 200 µM in IC50. Query: Brc1ccc2c(-c3nsc(-c4c[nH]c5cc(Br)ccc45)n3)c[nH]c2c1 Met

Field: below-cutoff. Rule: recorded IC50 strictly less than 200 µM. Subject: Cn1cc(-c2nsc(-c3cn(C)c4ccccc34)n2)c2ccccc21 Met

Lab log: compare recorded IC50 with 200 µM; is it strictly lower for Brc1ccc2[nH]cc(-c3nsc(-c4c[nH]c5ccc(Br)cc45)n3)c2c1 ? Met

Ref: ChEMBL document CHEMBL1833853
